system: M14 melanoma; experiment: NCI tumour cell line growth inhibition, 48 h
Measurement Label: TGI

Below, each entry is followed by its recorded TGI result.
INSERT INTO assay_data (compound, value_observed) VALUES
  ('N#C/C(=C1\SCC(=O)N1c1ccccc1)c1nc2ccccc2[nH]1', '> 100 µM'),
  ('NCCCN(CCCCN(CCCN)C(=O)OCc1ccccc1)C(=O)OCc1ccccc1', '> 100 µM'),
  ('O[C@@H]1C=C[C@]23CCN(Cc4cc5c(cc42)OCO5)[C@@H]3C1', '> 100 µM');

Proceeding to the next compound to report its TGI.
I would be grateful if you could share the reported TGI for `COc1ccc([C@H](CC(=O)O)N2CCN(CCCc3ccc4c(n3)NCCC4)C2=O)cn1` .
> 100 µM

----------
test system: SK-MEL-2 melanoma; test: NCI tumour cell line growth inhibition, 48 h; in the data active means GI50 below about 0.43 µM; inactive means the rest
Please state which outcome applies, choosing from Yes for active, No for inactive

Illustrative cases are given below, each with its answer.
INSERT INTO results (molecular_string, measured_on, qualitative_label) VALUES
  ('Cc1ccc(S(=O)(=O)Oc2ccc3c4c(c(=O)oc3c2)CCCCCC4)cc1', 'SK-MEL-2 melanoma', 'No'),
  ('COc1ccc(/C=C(/c2ccccc2)[N+](=O)[O-])c(OC)c1', 'SK-MEL-2 melanoma', 'No');

Tell me the recorded outcome of this test for `C/C(=C\c1ccn(-c2ccccc2N)n1)[C@@H]1C[C@@H]2O[C@]2(C)CCC[C@H](C)[C@H](O)[C@@H](C)C(=O)C(C)(C)[C@@H](O)CC(=O)O1` .
Yes

Another compound to check: `NC(=N\N=C/c1ccc(O)cc1)/C(N)=N\N=C/c1ccc(O)cc1`
No

Another compound to check: `O=C(Oc1cccc(Cl)c1)c1ccccc1Nc1ccnc(C(F)(F)F)c1`
No

----------
system: NCI-H23 lung; assay: NCI tumour cell line growth inhibition, 48 h
TGI values, listed per item

INSERT INTO results (compound, measured_on, measurement_label, value_observed) VALUES
  ('O=C1CCCNn2c(nc3ncccc3c2=O)N1', 'NCI-H23 lung', 'TGI', '> 100 µM'),
  ('C1=C(c2ccccc2)C(N2CCOCC2)Oc2ccccc21 (centres undefined)', 'NCI-H23 lung', 'TGI', '> 100 µM'),
  ('N#C/C(=C1\SCC(=O)N1c1ccccc1)c1nc2ccccc2[nH]1', 'NCI-H23 lung', 'TGI', '> 100 µM'),
  ('CC(C(=O)OCc1ccccc1)N(Cc1ccccc1)Cc1ccccc1 (centres undefined)', 'NCI-H23 lung', 'TGI', '> 100 µM'),
  ('NC(CCCC(N)P(=O)(O)O)C(=O)O (centres undefined)', 'NCI-H23 lung', 'TGI', '> 100 µM');

What reported TGI corresponds to `COc1ccc(-n2c(=O)c3[nH]c(=S)[nH]c3n(-c3ccc(OC)cc3)c2=S)cc1` on NCI-H23 lung?
> 100 µM

Another compound to check: ClC(Cl)=C(Cl)C1(Cl)CC1COCc1ccccc1 (centres undefined)
> 100 µM

Another compound to check: `CN(C)C(=O)Nc1nc2cc(Cl)c(Cl)cc2[nH]1`
> 66.5 µM

Another compound to check: OC1(c2ccccc2)C2CC=CC2C1(c1ccccc1)c1ccccc1 (centres undefined)
> 100 µM

Another compound to check: `C=CC(=O)N1CCC(c2ccc(C(N)=O)c(-c3ccc(Oc4ccccc4)cc3)n2)CC1`
> 100 µM

Another compound to check: COC(=O)[C@H](Cc1c[nH]c2ccccc12)NP(=O)(OCCC#N)OCC1OC(n2cc(C)c(=O)[nH]c2=O)CC1N=[N+]=[N-] (some centres undefined)
> 100 µM

Another compound to check: `O=P1(N2CCOCC2)OCCO1`
> 100 µM

Another compound to check: `CN(C)Cc1ccc(-c2cc3onc(-c4ccccc4)c3c(=O)n2C)cc1`
> 100 µM

Another compound to check: CC1C(NNC(N)=O)Oc2cc3c(cc2C1c1ccccc1O)OCO3 (centres undefined)
> 100 µM

Another compound to check: `O=[N+]([O-])c1cc[n+]([O-])c2ccccc12`
1.56 µM

Another compound to check: `COc1cc2c3c(n(CCCN)c(=O)c2cc1OC)-c1ccc([N+](=O)[O-])cc1C3=O`
25.1 µM

Another compound to check: `O=c1c2c([nH]c3nccn13)CCC2`
> 10 µM
